// reported IC50 per item
Biological target: CXCR4 (U87.CXCR4 cells) (Homo sapiens, UniProt P61073)
Sequence (P61073 whole entry): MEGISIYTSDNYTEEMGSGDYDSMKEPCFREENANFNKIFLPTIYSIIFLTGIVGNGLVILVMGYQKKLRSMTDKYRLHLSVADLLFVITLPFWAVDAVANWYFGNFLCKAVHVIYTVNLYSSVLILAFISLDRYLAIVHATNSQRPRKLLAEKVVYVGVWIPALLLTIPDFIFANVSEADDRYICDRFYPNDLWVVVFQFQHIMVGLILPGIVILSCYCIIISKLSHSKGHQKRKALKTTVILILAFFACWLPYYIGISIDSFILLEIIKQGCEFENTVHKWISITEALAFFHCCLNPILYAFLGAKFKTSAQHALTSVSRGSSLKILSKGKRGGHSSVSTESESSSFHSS
Assay: Intracellular CXCL-12-induced calcium mobilization assay (FLIPR)
Conditions: CXCL-12 25-50 ng/mL, read-out: IC50 CXCL-12 Ca2+ flux U87.CXCR4+
Protocol: Intracellular CXCL-12-Induced Calcium Mobilization Assay Intracellular calcium mobilization induced by chemokines or chemokine-derived peptides were evaluated using a calcium responsive fluorescent probe and a FLIPR system. […] The intracellular calcium mobilization induced by the CXCL-12 (25-50 ng/mL) was then measured at 37° C. by monitoring the fluorescence as a function of time in all the wells simultaneously using a fluorometric imaging plate reader (FLIPR Tetra, Molecular Devices).
Test readout: IC50

- Cc1cccnc1C1CCCN1Cc1nccn1Cc1cccnc1 (stereo not shown): ≥ 1000 nM
- CN1CCN(c2cccnc2CN2CCCC2c2ccccn2)CC1 (stereo not shown): ≥ 1000 nM
- Cc1cccnc1C1CCCN1Cc1cc2c(N3CCN(C)CC3)cccc2o1 (stereo not shown): ≥ 1000 nM
- CN1CCN(c2c(C3CCCN3Cc3ncccn3)nc3ccccn23)CC1 (stereo not shown): ≥ 1000 nM
- CN1CCN(c2cccc3nc(CN4CCCC4c4ccccn4)[nH]c23)CC1 (stereo not shown): 100 to 1000 nM
- c1ccc(C2CCCN2Cc2ccccc2-n2cccn2)nc1 (stereo not shown): ≥ 1000 nM
- Cc1cccnc1C1CCCN1Cc1nc2cccc(N3CCN(C)C4(CC4)C3)c2[nH]1 (stereo not shown): 100 to 1000 nM
- c1ccc(C2CCCN2Cc2nc3ccccn3c2N2CCOCC2)nc1 (stereo not shown): ≥ 1000 nM
- Cc1cccnc1C1CCCN1Cc1nccn1CC1CCOCC1 (stereo not shown): ≥ 1000 nM
- Cc1cccnc1CN1CCCC1c1nccn1CC1CCN(C)CC1 (stereo not shown): 100 to 1000 nM
- CN1CCN(c2c(CN3CCCC3c3ncc[nH]3)nc3ccccn23)CC1 (stereo not shown): ≥ 1000 nM
- Cc1cccnc1C1CCCCN1Cc1cn2c(N3CCN(C)CC3)cccc2n1 (stereo not shown): 100 to 1000 nM
- c1ccc(C2CCCN2Cc2nc3ccccn3c2-c2ccncc2)nc1 (stereo not shown): 100 to 1000 nM
- CN1CCN(c2cccc3nc(C4CCCN4Cc4ccccn4)[nH]c23)CC1 (stereo not shown): 100 to 1000 nM
- Cc1cccnc1C1CCCN1Cc1nc2cccc(N3CCN(C)CC3)c2o1 (stereo not shown): ≥ 1000 nM
- c1ccc(C2CCCN2Cc2nc3ccccn3c2N2CCN(C3CC3)CC2)nc1 (stereo not shown): 100 to 1000 nM
- Cc1cccnc1C1CCCN1Cc1nc2c(N3CCN(C)CC3)cccc2o1 (stereo not shown): ≥ 1000 nM
- Cc1cccnc1C1CCCN1Cc1cn2c(N3CCN(C)CC3)cccc2n1 (stereo not shown): 0.01 to 100 nM
- c1ccc(C2CCCN2Cc2ncccc2-n2cccn2)nc1 (stereo not shown): ≥ 1000 nM
- Cc1c(CN2CCCC2c2ncccc2Cl)nc2cccc(N3CCN(C)CC3)n12 (stereo not shown): 100 to 1000 nM
- CN1CCN(c2cccc3nc(C4CCCCN4Cc4ccccc4-n4cccn4)[nH]c23)CC1 (stereo not shown): ≥ 1000 nM
- CN1CC=C(c2c(CN3CCCC3c3ccccn3)nc3ccccn23)CC1 (stereo not shown): 0.01 to 100 nM
- Cc1cccnc1C1CCCN1Cc1nc2ccccn2c1N1CCN(C)CC1 (stereo not shown): 0.01 to 100 nM
- Cc1cccnc1CN1CCCC1c1nc2cccc(N3CCN(C)CC3)c2[nH]1 (stereo not shown): 0.01 to 100 nM
- Cc1cccnc1C1CCCN1Cc1nccn1C1CCN(C)CC1 (stereo not shown): ≥ 1000 nM
- CN1CCN(c2c(CN3CCCC3c3ccccn3)nc3cccc(F)n23)CC1 (stereo not shown): 100 to 1000 nM
- Cc1cccnc1C1CCCN1Cc1ncccc1CC1CCN(C)CC1 (stereo not shown): 0.01 to 100 nM
- Cc1cccnc1C1CCCN1Cc1nccn1CCCCN1CCOCC1 (stereo not shown): ≥ 1000 nM
- Cc1cccnc1C1CCCN1Cc1nc2cccc(N3CCN(C)CC3)n2c1F (stereo not shown): 100 to 1000 nM
- Cc1cccnc1C1CCCN1Cc1cn2c(N3CCN(C)C4(CC4)C3)cccc2n1 (stereo not shown): 100 to 1000 nM
- OCc1c(CN2CCCC2c2ccccn2)nc2ccccn12 (stereo not shown): ≥ 1000 nM
- CN1CCC(n2c(C3CCCN3Cc3ccccn3)nc3ccccc32)CC1 (stereo not shown): ≥ 1000 nM
- Cc1cccnc1C1CCCN1Cc1ccccc1-n1cccn1 (stereo not shown): 100 to 1000 nM
- Cc1cccnc1C1CCCN1Cc1nccn1CC1CCN(C)CC1 (stereo not shown): 0.01 to 100 nM
- CN1CCN(c2c(CN3CCCC3c3ccccn3)nc3ccccn23)CC1=O (stereo not shown): ≥ 1000 nM
- N#CCCc1c(CN2CCCC2c2ccccn2)nc2ccccn12 (stereo not shown): ≥ 1000 nM
- Cc1cccnc1C1CCCN1Cc1nc2ccccc2n1C1CCN(C)CC1 (stereo not shown): 100 to 1000 nM

----------
assay: in vitro; settings: human, Caco-2, pH 7.4
// reported Papp A→B at 90 min, 10 μM per item
Test readout: Papp A→B at 90 min, 10 μM

* CN1CCN(c2c(CN3CCCC3c3nccs3)nc3ccccn23)CC1 (stereo not drawn) | 10 to 30 ×10⁻⁶ cm/s
* CN1CCN(c2c(CN3CCCC3c3ccccn3)nc3ccccn23)CC1=O (stereo not drawn) | 0.1 to 10 ×10⁻⁶ cm/s
* CN1CCN(c2c(CN3CCCC3c3ncccc3Cl)nc3ccccn23)CC1 (stereo not drawn) | 0.1 to 10 ×10⁻⁶ cm/s
* c1ccc(C2CCCN2Cc2nc3ccccn3c2N2CCOCC2)nc1 (stereo not drawn) | > 30 ×10⁻⁶ cm/s
* Cc1cccnc1C1CCCN1Cc1nccn1C1CCN(C)CC1 (stereo not drawn) | 0.1 to 10 ×10⁻⁶ cm/s
* CN1CCN(c2c(C3CCCN3Cc3ncccn3)nc3ccccn23)CC1 (stereo not drawn) | 0.1 to 10 ×10⁻⁶ cm/s
* Cc1cccnc1C1CCCN1Cc1nc2cccc(N3CCN(C)CC3)n2c1Br (stereo not drawn) | 0.1 to 10 ×10⁻⁶ cm/s
* CN1CCN(c2cccc3[nH]c(CN4CCCC4c4nccn4C)nc23)CC1 (stereo not drawn) | 0.1 to 10 ×10⁻⁶ cm/s
* c1ccc(C2CCCN2Cc2nc3ccccn3c2N2CCN(C3CC3)CC2)nc1 (stereo not drawn) | 10 to 30 ×10⁻⁶ cm/s

----------
test: in vitro; details: human, Caco-2, pH 7.4
// reported efflux ratio at 90 min, 10 μM per item
Test readout: efflux ratio at 90 min, 10 μM

- Cc1cccnc1C1CCCN1Cc1ncccc1CC1CCN(C)CC1 (stereo not drawn): > 30
- N#CCCc1c(CN2CCCC2c2ccccn2)nc2ccccn12 (stereo not drawn): 0.1 to 10
- c1ccc(C2CCCN2Cc2ccccc2-n2cccn2)nc1 (stereo not drawn): 0.1 to 10
- CN1CCN(c2c(CN3CCCC3c3ccccn3)nc3ccccn23)CC12CC2 (stereo not drawn): 0.1 to 10
- Cc1cccnc1C1CCCN1Cc1nc2ccccn2c1N1CCN(C)CC1 (stereo not drawn): 10 to 30
- CN1CCN(c2c(CN3CCCC3c3ccccn3)nc3c(F)cccn23)CC1 (stereo not drawn): 0.1 to 10
- Cc1cccnc1C1CCCN1Cc1nccn1C1CCN(C)CC1 (stereo not drawn): 0.1 to 10
- CN1CCN(c2c(CN3CCCC3c3ncc[nH]3)nc3ccccn23)CC1 (stereo not drawn): 0.1 to 10
- Cc1cccnc1C1CCCN1Cc1cn2c(N3CCN(C)C4(CC4)C3)cccc2n1 (stereo not drawn): 0.1 to 10

----------
assay: in vitro; settings: human, Caco-2, pH 7.4
// reported Papp A→B at 90 min, 10 μM per item
Test readout: Papp A→B at 90 min, 10 μM

- CN1CCC(Cn2ccnc2CN2CCCC2c2ccccn2)CC1 (stereo not drawn): 0.1 to 10 ×10⁻⁶ cm/s
- Cc1cccnc1C1CCCN1Cc1nc2ccccc2n1CC1CCN(C)CC1 (stereo not drawn): 0.1 to 10 ×10⁻⁶ cm/s
- Cc1cccnc1C1CCCN1Cc1nccn1CC1CCN(C2CC2)CC1 (stereo not drawn): 0.1 to 10 ×10⁻⁶ cm/s
- c1ccc(OCc2c(CN3CCCC3c3ccccn3)nc3ccccn23)nc1 (stereo not drawn): 10 to 30 ×10⁻⁶ cm/s
- CN1CCC(n2ccnc2CN2CCCC2c2ccccn2)CC1 (stereo not drawn): 0.1 to 10 ×10⁻⁶ cm/s
- c1ccc(C2CCCN2Cc2nc3ccccn3c2N2CCN(c3ccccn3)CC2)nc1 (stereo not drawn): > 30 ×10⁻⁶ cm/s
- CN1CCN(c2cccc3nc(CN4CCCC4c4nccc5ccccc45)cn23)CC1 (stereo not drawn): 0.1 to 10 ×10⁻⁶ cm/s
- Cc1cccnc1C1CCCN1Cc1nc2cccc(N3CCN(C)C4(CC4)C3)c2[nH]1 (stereo not drawn): 0.1 to 10 ×10⁻⁶ cm/s
- Cc1cccnc1C1CCCN1Cc1nc2c(N3CCN(C)CC3)cccc2[nH]1 (stereo not drawn): 0.1 to 10 ×10⁻⁶ cm/s
